These entries and their values trace back to ChEMBL document CHEMBL1124438.

System: Human rhinovirus 1A
experiment_summary: Virus rating against rhinovirus type 1A
Assay type: functional
Exercise: state measured Rating for each of the compounds provided.
Respond numerically, and do not add a unit to the figure.

Ask: Would you kindly share the measured Rating for O=c1[nH]cnc2c1ccn2[C@@H]1O[C@H](CO)[C@@H](O)[C@H]1O [IMMUNICILLIN H] ?
Result: 0

Ask: Would you kindly share the measured Rating for N=C(N)c1ncn([C@@H]2O[C@H](CO)[C@@H](O)[C@H]2O)n1 [TARIBAVIRIN] ?
Result: 0.2

Ask: Would you kindly share the measured Rating for `Cn1cnc2c([C@@H]3O[C@H](CO)[C@@H](O)[C@H]3O)nnc-2c1N` ?
Result: 0

Ask: Would you kindly share the measured Rating for Nc1nn(C2O[C@H](CO)[C@@H](O)[C@H]2O)c2nc[nH]c(=O)c12 (some centres not stated) ?
Result: 0

Ask: Would you kindly share the measured Rating for `O=c1[nH]c(=O)c2[nH]nc([C@@H]3O[C@H](CO)[C@@H](O)[C@H]3O)c2[nH]1` ?
Result: 0

Ask: Would you kindly share the measured Rating for `NC(=O)c1ccnc([C@@H]2O[C@H](CO)[C@@H](O)[C@H]2O)n1` ?
Result: 0

Ask: Would you kindly share the measured Rating for NC(=O)C1NN=C([C@@H]2O[C@H](CO)[C@@H](O)[C@H]2O)C1=O (some centres not stated) ?
Result: 0.6

---

Exercise: state measured Rating for each of the molecules provided.
Test system: Human rhinovirus 1A
experiment_summary: Virus rating against rhinovirus type 1A
Assay type: functional
Respond numerically, and do not add a unit to the figure.

Ask: Would you kindly share the measured Rating for `CN1C=NC(N)=C2NNC([C@@H]3O[C@H](CO)[C@@H](O)[C@H]3O)=C21` ?
Result: 0

Ask: Would you kindly share the measured Rating for `COc1c([C@@H]2O[C@H](CO)[C@@H](O)[C@H]2O)nn(C)c1C(N)=O` ?
Result: 0

Ask: Would you kindly share the measured Rating for OC[C@H]1O[C@@H](C2=NNC3C(=S)N=CN=C23)[C@H](O)[C@@H]1O (some centres undefined) ?
Result: 0.9

Ask: Would you kindly share the measured Rating for `Nc1ncnc2c([C@@H]3O[C@H](CO)[C@@H](O)[C@H]3O)[nH]nc12` ?
Result: 0.1

Ask: Would you kindly share the measured Rating for OC[C@H]1OC(n2ncc3c(S)ncnc32)[C@H](O)[C@@H]1O (some centres undefined) ?
Result: 0

Ask: Would you kindly share the measured Rating for `CSc1ncnc2c([C@@H]3O[C@H](CO)[C@@H](O)[C@H]3O)n[nH]c12` ?
Result: 0

Ask: Would you kindly share the measured Rating for NC(=O)c1cn(C2O[C@H](CO)[C@@H](O)[C@H]2O)[nH]c1=O (some centres undefined) ?
Result: 0

Ask: Would you kindly share the measured Rating for `Nc1[nH]c(=O)nc2c([C@@H]3O[C@H](CO)[C@@H](O)[C@H]3O)n[nH]c12` ?
Result: 0

Ask: Would you kindly share the measured Rating for `Cn1nc([C@@H]2O[C@H](CO)[C@@H](O)[C@H]2O)c2ncnc(N)c21` ?
Result: 0

---

System: Human respirovirus 3
experiment_summary: Virus rating against parainfluenza virus type 3
Assay type: functional
readout_label: Rating
Respond numerically, and do not add a unit to the figure.

Ask: Would you kindly share the measured Rating for `COc1c([C@@H]2O[C@H](CO)[C@@H](O)[C@H]2O)nn(C)c1C(N)=O` ?
Result: 1.65

Ask: Would you kindly share the measured Rating for `N=C(N)c1ncn([C@@H]2O[C@H](CO)[C@@H](O)[C@H]2O)n1` ?
Result: 1.2

Ask: Would you kindly share the measured Rating for `NC(=O)c1ncn([C@@H]2O[C@H](CO)[C@@H](O)[C@H]2O)n1` ?
Result: 1.3

Ask: Would you kindly share the measured Rating for `NC(=O)c1ccnc([C@@H]2O[C@H](CO)[C@@H](O)[C@H]2O)n1` ?
Result: 0.25

Ask: Would you kindly share the measured Rating for `NC(=O)c1csc([C@@H]2O[C@H](CO)[C@@H](O)[C@H]2O)n1` ?
Result: 1.3

Ask: Would you kindly share the measured Rating for CSc1ncnc2c1cnn2C1O[C@H](CO)[C@@H](O)[C@H]1O (some centres undefined) ?
Result: 1.05

Ask: Would you kindly share the measured Rating for `Nc1[nH]c(=O)nc2c([C@@H]3O[C@H](CO)[C@@H](O)[C@H]3O)n[nH]c12` ?
Result: 1.22

Ask: Would you kindly share the measured Rating for `Nc1cc2c(ncn2[C@@H]2O[C@H](CO)[C@@H](O)[C@H]2O)c(=O)[nH]1` ?
Result: 0.8

Ask: Would you kindly share the measured Rating for Nc1nn(C2O[C@H](CO)[C@@H](O)[C@H]2O)c2nc[nH]c(=O)c12 (some centres undefined) ?
Result: 0.28

Ask: Would you kindly share the measured Rating for `Nc1ncnc2c([C@@H]3O[C@H](CO)[C@@H](O)[C@H]3O)[nH]nc12` ?
Result: 1.4

Ask: Would you kindly share the measured Rating for `Cn1nc([C@@H]2O[C@H](CO)[C@@H](O)[C@H]2O)c2nc(=O)[nH]c(N)c21` ?
Result: 0.88

Ask: Would you kindly share the measured Rating for Nc1nc(Cl)nc2c1cnn2C1O[C@H](CO)[C@@H](O)[C@H]1O (some centres undefined) ?
Result: 0.15

Ask: Would you kindly share the measured Rating for `CSc1ncnc2c1ncn2[C@@H]1O[C@H](CO)[C@@H](O)[C@H]1O` ?
Result: 2.2

Ask: Would you kindly share the measured Rating for NC(=O)C1NN=C([C@@H]2O[C@H](CO)[C@@H](O)[C@H]2O)C1=O (some centres undefined) ?
Result: 1.65

Ask: Would you kindly share the measured Rating for `Cn1nc([C@@H]2O[C@H](CO)[C@@H](O)[C@H]2O)c2ncnc(N)c21` ?
Result: 0.86

Ask: Would you kindly share the measured Rating for `CSc1ncnc2c([C@@H]3O[C@H](CO)[C@@H](O)[C@H]3O)n[nH]c12` ?
Result: 1.35

Ask: Would you kindly share the measured Rating for OC[C@H]1OC(n2ncc3c(S)ncnc32)[C@H](O)[C@@H]1O (some centres undefined) ?
Result: 0.7

Ask: Would you kindly share the measured Rating for `O=c1[nH]c(=O)c2[nH]nc([C@@H]3O[C@H](CO)[C@@H](O)[C@H]3O)c2[nH]1` ?
Result: 0.68

Ask: Would you kindly share the measured Rating for `O=c1[nH]cnc2c1ccn2[C@@H]1O[C@H](CO)[C@@H](O)[C@H]1O` ?
Result: 0.08

---

Exercise: state measured Rating for each of the molecules provided.
System: Human rhinovirus 1A
experiment_summary: Virus rating against rhinovirus type 1A
Assay type: functional
Respond numerically, and do not add a unit to the figure.

Ask: Would you kindly share the measured Rating for O=C1N=CN=C2C([C@@H]3O[C@H](CO)[C@@H](O)[C@H]3O)=NNC12 (stereo not given in full) ?
Result: 0.3

Ask: Would you kindly share the measured Rating for `CSc1ncnc2c1ccn2[C@@H]1O[C@H](CO)[C@@H](O)[C@H]1O` ?
Result: 0.6

Ask: Would you kindly share the measured Rating for Nc1nc(Cl)nc2c1cnn2C1O[C@H](CO)[C@@H](O)[C@H]1O (stereo not given in full) ?
Result: 0

Ask: Would you kindly share the measured Rating for Nc1nc(Cl)cc2c1ncn2C1O[C@H](CO)[C@@H](O)[C@H]1O (stereo not given in full) ?
Result: 0

Ask: Would you kindly share the measured Rating for `CSc1ncnc2c1ncn2[C@@H]1O[C@H](CO)[C@@H](O)[C@H]1O` ?
Result: 0.8

Ask: Would you kindly share the measured Rating for `Nc1cc2c(ncn2[C@@H]2O[C@H](CO)[C@@H](O)[C@H]2O)c(=O)[nH]1` ?
Result: 1

Ask: Would you kindly share the measured Rating for CSc1ncnc2c1cnn2C1O[C@H](CO)[C@@H](O)[C@H]1O (stereo not given in full) ?
Result: 0.6

Ask: Would you kindly share the measured Rating for NC(=O)c1csc([C@@H]2O[C@H](CO)[C@@H](O)[C@H]2O)n1 [TIAZOFURIN] ?
Result: 0

Ask: Would you kindly share the measured Rating for OC[C@H]1OC(n2cc3c(O)nc(Cl)nc3n2)[C@H](O)[C@@H]1O (stereo not given in full) ?
Result: 0

Ask: Would you kindly share the measured Rating for NC(=O)c1ncn([C@@H]2O[C@H](CO)[C@@H](O)[C@H]2O)n1 [RIBAVIRIN] ?
Result: 0.7

---

Tested on: Human respirovirus 3
experiment_summary: Virus rating against parainfluenza virus type 3
Type: functional
Heads up, the class ranges for Rating are label 0 (below 0.3), label 1 (0.3 to below 1), label 2 (1 or more)

Ask: Note: place this compound into its band. Item: Nc1nc(Cl)cc2c1ncn2C1O[C@H](CO)[C@@H](O)[C@H]1O (some centres undefined)
Result: label 1

Ask: Note: place this compound into its band. Item: OC[C@H]1OC(n2cc3c(O)nc(Cl)nc3n2)[C@H](O)[C@@H]1O (some centres undefined)
Result: label 0

Ask: Note: place this compound into its band. Item: O=C1N=CN=C2C([C@@H]3O[C@H](CO)[C@@H](O)[C@H]3O)=NNC12 (some centres undefined)
Result: label 1

Ask: Note: place this compound into its band. Item: `Cn1cnc2c([C@@H]3O[C@H](CO)[C@@H](O)[C@H]3O)nnc-2c1N`
Result: label 2

Ask: Note: place this compound into its band. Item: `CSc1ncnc2c1ccn2[C@@H]1O[C@H](CO)[C@@H](O)[C@H]1O`
Result: label 1

Ask: Note: place this compound into its band. Item: `CN1C=NC(N)=C2NNC([C@@H]3O[C@H](CO)[C@@H](O)[C@H]3O)=C21`
Result: label 2

Ask: Note: place this compound into its band. Item: NC(=O)c1cn(C2O[C@H](CO)[C@@H](O)[C@H]2O)[nH]c1=O (some centres undefined)
Result: label 0

Ask: Note: place this compound into its band. Item: OC[C@H]1O[C@@H](C2=NNC3C(=S)N=CN=C23)[C@H](O)[C@@H]1O (some centres undefined)
Result: label 2

Ask: Note: place this compound into its band. Item: `OC[C@H]1O[C@@H](n2ccc3c(S)ncnc32)[C@H](O)[C@@H]1O`
Result: label 2
